For each of the compounds below, state its melting point.

Request: Look up melting point: CCOC(=O)c1ccc(NC(=O)NC2CN(C3CCCCC3)c3ccccc3N(CC(=O)c3cccs3)C2=O)cc1 (stereo unspecified)
Response: 219 to 220 °C

Request: I'd like to know its melting point. The compound in question is CN=C(NC#N)NCCSCc1ccsn1
Response: 63 to 64 °C

Request: Entry COc1c(C)cc(C)cc1/C=C/C(=O)O : reported melting point = ?
Response: 178 to 180 °C

Request: Can you look up the measured melting point of Cc1ccccc1N1CCc2c(N)nc3c(C)cccc3c21 for me?
Response: 173 to 174 °C

Request: Entry COc1cc(OC)nc(C2(O)OC(=O)c3c2ccnc3C)n1 (stereo unspecified) has what melting point?
Response: 203 to 204 °C

Request: Given the entry COc1ccc(-c2cnn3c(N)c(-c4cccc(Cl)c4)c(C)nc23)cc1 , report its measured melting point.
Response: 171 to 172 °C

---

Provide the reported melting point of each item.

Request: What does the data say about its melting point? Entry: CONC(=O)COc1c(-c2ccccc2)c(=O)[nH]c2cc(Cl)ccc12
Response: 205 to 207 °C

Request: Would you kindly share the measured melting point for CC(=O)CCC(=O)c1ccc(Cl)cc1 ?
Response: 165 to 167 °C

Request: Entry under review: Cn1c(=O)c(=O)[nH]c2cc(Cl)ccc21 . Reported melting point?
Response: 342 °C

Request: Bench note: what melting point did COc1ccc(-c2ccc3c(-c4ccccc4)c(OC)ccc3c2)cc1 show?
Response: 157 to 160 °C

Request: Reported melting point, molecule CCCCc1nc2c(N)nc3ccccc3c2n1CCCNS(=O)(=O)c1cccc2c(N(C)C)cccc12 : ____
Response: 216 to 218 °C

Request: What measured melting point goes with COc1ccc(NC(=O)C2C(=O)N(C)C(=S)N(C)C2=O)cc1Oc1ccc(C(F)(F)F)cc1Cl ?
Response: 165 to 168 °C

Request: Suppose we examine the molecule COC(=O)c1ccc(Cl)c(CBr)c1Cl ; what melting point value has been reported?
Response: 51 to 54 °C

Request: Which melting point value is on record for CC(C)C(c1ccc(N)cc1)c1cccnc1 (centres undefined) ?
Response: 102 °C

Request: Fill in: melting point of O=C(CCCCCCNC(=O)c1ccc(C(C(=O)Nc2cccc3cccnc23)C(=O)Nc2cccc3cccnc23)cc1)NO is ___
Response: 212 to 215 °C

Request: State the recorded melting point for this entry: O=[N+]([O-])c1cc2nc(O)c(O)nc2c2c([N+](=O)[O-])cccc12
Response: > 300 °C

Request: // melting point lookup, key: COc1ccc([C@@H]2C=C[C@H](C(=O)O)n3c(=O)n(CCCl)c(=O)n32)cc1 (relative stereo)
Response: 158 to 161 °C

Request: Which melting point is reported for this molecule? CCOC(=O)C(=CC=C1CCc2ccccc2C1=O)N(C)C
Response: 123 °C

Request: Query (molecule): CCCCn1c(=O)n(CCC)c(=O)c2c(N)n(CCCl)nc21 ; field requested: melting point
Response: 118 to 121 °C

Request: // lookup melting point for CCc1nc2c(cnn2CC)c(NC2CCOCC2)c1CNC(=O)c1cccc(C(=O)NCc2ccc(F)c(-c3cccc(CN4CCCCC4)c3)c2)c1
Response: 128 to 131 °C

Request: Consider the molecule shown here: COC(=O)c1ccccc1-c1ccc(Cc2nc(-c3ccccc3)nc3ccccc23)cc1 What is its recorded melting point?
Response: 120 to 121 °C

Request: Which measured melting point value corresponds to COc1nc(SCC(N)c2ncco2)cnc1NS(=O)(=O)c1cccc(Cl)c1Cl (centres undefined) ?
Response: 168 to 170 °C

Request: Any idea what its melting point is? The molecule is COc1cccc2c1CN(Nc1ccncc1)C2
Response: 144 to 146 °C

Request: Looking for the measured melting point of O=C(Nc1nc[nH]n1)c1ccc(-c2ccc3nnn(Cc4ccc5ncccc5c4)c3n2)cc1Cl , can you help?
Response: 286 to 288 °C

Request: Field request: melting point | item: O=C(Nc1c[nH]nc1C(=O)NCCc1c[nH]c2ccccc12)c1ccccn1
Response: 250 to 251 °C
